Entry source: ChEMBL document CHEMBL1157039

# Tested on: Salmonella enterica
# PROTOCOL SUMMARY: Antibacterial activity against recultured Salmonella Typhimurium after 24 hrs by disk diffusion method
# Assay type: functional, Salmonella enterica subsp. enterica serovar Typhimurium
MEASUREMENT LABEL: diameter of the inhibition zone (DIZ)
I'd appreciate it if you included the unit after the number.

Input line: I would be grateful if you could share the reported diameter of the inhibition zone (DIZ) for C=CCCCCCCCCC(=O)O[C@H]1CC[C@]2(C)[C@H]3CC[C@]4(C)[C@@H]([C@H](C)CCCC(C)C)CC[C@H]4[C@@H]3C[C@@H](Br)[C@@]2(Br)C1 .
Output line: 16.2 mm

Input line: I would be grateful if you could share the reported diameter of the inhibition zone (DIZ) for CCCCCCC(O)C/C=C\CCCCCCCC(=O)O[C@H]1CC[C@@]2(C)C(=CC[C@H]3[C@@H]4CC[C@H]([C@H](C)CCCC(C)C)[C@@]4(C)CC[C@@H]32)C1 (stereo partly drawn) .
Output line: 21.1 mm

Input line: I would be grateful if you could share the reported diameter of the inhibition zone (DIZ) for C=CCCCCCCCCC(=O)O[C@H]1CC[C@@]2(C)C(=CC[C@H]3[C@@H]4CC[C@H]([C@H](C)CCCC(C)C)[C@@]4(C)CC[C@@H]32)C1 .
Output line: 16.4 mm

* * *

# System: Salmonella enterica
# PROTOCOL SUMMARY: Antibacterial activity against recultured Salmonella Typhimurium after 24 hrs by disk diffusion method
# Format: functional, Salmonella enterica subsp. enterica serovar Typhimurium
Quick rule for you: diameter of the inhibition zone (DIZ) at 20 mm or higher means t, lower means f.

Input line: Reported diameter of the inhibition zone (DIZ) reaches at least 20 mm for CC(C)CCC[C@@H](C)[C@H]1CC[C@H]2[C@@H]3CC=C4C[C@@H](OC(=O)CCCCCCCCC5CO5)CC[C@]4(C)[C@H]3CC[C@]12C (stereo not given in full) ?
Output line: f

Input line: Reported diameter of the inhibition zone (DIZ) reaches at least 20 mm for CC(C)CCC[C@@H](C)[C@H]1CC[C@H]2[C@@H]3C[C@@H](Br)[C@@]4(Br)C[C@@H](OC(=O)CCCCCCCCC(Br)CBr)CC[C@]4(C)[C@H]3CC[C@]12C (stereo not given in full) ?
Output line: t

Input line: Reported diameter of the inhibition zone (DIZ) reaches at least 20 mm for CCCCC/C=C\CCC(O)CCCCCCCC(=O)O[C@H]1CC[C@@]2(C)C(=CC[C@H]3[C@@H]4CC[C@H]([C@H](C)CCCC(C)C)[C@@]4(C)CC[C@@H]32)C1 (stereo not given in full) ?
Output line: f

Input line: Reported diameter of the inhibition zone (DIZ) reaches at least 20 mm for CCCCCCCC/C=C\CCCCCCCC(=O)O[C@H]1CC[C@@]2(C)C(=CC[C@H]3[C@@H]4CC[C@H]([C@H](C)CCCC(C)C)[C@@]4(C)CC[C@@H]32)C1 [CHOLESTERYL OLEATE] ?
Output line: f

Input line: Reported diameter of the inhibition zone (DIZ) reaches at least 20 mm for CC(C)CCC[C@@H](C)[C@H]1CC[C@H]2[C@@H]3CC=C4C[C@@H](OC(=O)CCCCCCCCC(Br)CBr)CC[C@]4(C)[C@H]3CC[C@]12C (stereo not given in full) ?
Output line: f
